The values you see were collected from paper PMC9026082.

System: A2780 (ovarian carcinoma)
experiment notes: SRB cytotoxicity assay, A2780
Assay type: cell-based, human
condition summary: Homo sapiens, A2780; SRB assay, 72 h of treatment; cut-off 30 μM
# strict inequality: EC50 < 8 µM yields true, everything else yields false

>>> category_label("CC(=O)OC[C@@]1(C)[C@@H]2CC[C@]3(C)[C@H](CC=C4[C@@H]5CC(C)(C)CC[C@]5(C(=O)O)CC[C@]43C)[C@@]2(C)CC[C@@H]1OC(C)=O [Compound 5]")
"false"
>>> category_label("CC(=O)OC[C@@]1(C)[C@@H]2CC[C@]3(C)[C@H](CC=C4[C@@H]5CC(C)(C)CC[C@]5(C(=O)NCc5ccccc5)CC[C@]43C)[C@@]2(C)CC[C@@H]1OC(C)=O [Compound 11]")
"true"
>>> category_label("CCN(CC)c1ccc2c(-c3ccccc3C(=O)N3CCN(C(=O)[C@]45CC[C@@H](C)[C@H](C)[C@H]4C4=CC[C@@H]6[C@@]7(C)C[C@@H](OC(C)=O)[C@H](OC(C)=O)[C@@](C)(COC(C)=O)[C@@H]7[C@H](O)C[C@@]6(C)[C@]4(C)CC5)CC3)c3ccc(=[N+](CC)CC)cc-3oc2c1 [Compound 23]")
"true"

Kindly review the next molecule as well.
Lookup: Determine whether this molecule shows EC50 lower than 8 µM (ties excluded): CC(=O)O[C@H]1CC[C@]2(C)[C@H]3CC=C4[C@@H]5CC(C)(C)CC[C@]5(C(=O)Nc5ccccc5)CC[C@@]4(C)[C@]3(C)CC[C@H]2[C@]1(C)C=O [Compound 8]
Found: false

----------
Below: a set of entries, each annotated with reported pEC50.
Test system: A2780 (ovarian carcinoma)
experiment notes: SRB cytotoxicity assay, A2780
Assay type: cell-based, human
condition summary: Homo sapiens, A2780; SRB assay, 72 h of treatment; cut-off 30 μM
Please express pEC50 as -log10 of the molar concentration.

>>> assay_value("CCN(CC)c1ccc2c(-c3ccccc3C(=O)N3CCCN(C(=O)[C@]45CCC(C)(C)C[C@H]4C4=CC[C@@H]6[C@@]7(C)CC[C@H](OC(C)=O)[C@@](C)(COC(C)=O)[C@@H]7CC[C@@]6(C)[C@]4(C)CC5)CC3)c3ccc(=[N+](CC)CC)cc-3oc2c1 [Compound 22]")
7.74

Pending molecule:
Lookup: Fill in reported pEC50 for this entry: CC(=O)OC[C@@]1(C)[C@@H]2CC[C@]3(C)[C@H](CC=C4[C@@H]5CC(C)(C)CC[C@]5(C(=O)Nc5ccccc5)CC[C@]43C)[C@@]2(C)CC[C@@H]1OC(C)=O [Compound 12]
Found: 6.10

----------
Below: a set of entries, each annotated with reported EC50.
System: MCF7 (breast adenocarcinoma)
experiment notes: SRB cytotoxicity assay, MCF7
Assay type: cell-based, human
condition summary: Homo sapiens, MCF7, 72 h of treatment, cut-off 30 μM

>>> assay_value("CC(=O)O[C@H]1CC[C@]2(C)[C@H]3CC=C4[C@@H]5CC(C)(C)CC[C@]5(C(=O)Nc5ccccc5)CC[C@@]4(C)[C@]3(C)CC[C@H]2[C@]1(C)C=O [Compound 8]")
"> 30 µM"

Pending molecule:
Lookup: Fill in reported EC50 for this entry: COc1cccc2c1C(=O)c1c(O)c3c(c(O)c1C2=O)C[C@@](O)(C(=O)CO)C[C@@H]3O[C@H]1C[C@H](N)[C@H](O)[C@H](C)O1 [DX, Doxorubicin, reference compound]
Found: 1.1 µM
